# System: CCRF-CEM leukemia
# protocolSummary: NCI-60 one-dose screen, 48 h (100 = growth as untreated, 0 = no growth, -100 = all killed)
# testParameters: 10 µM unless noted
About 83,000 compounds went through this panel and 20% of them were active in at least one assay; those are over-represented in the sample as a whole. Active and inactive are the calls of the source. The calls were made as follows: active = growth percent below 10; inactive = the rest.
measurementName: growth

// solved cases for growth follow
{"molecule": "Cc1ccc(S(=O)(=O)N(c2ccc(Cl)cc2)c2ccc(Br)cc2C(=O)O)cc1", "obsValue": "102% (inactive)"}
{"molecule": "COc1cc(NC(=O)COc2ccccc2)c(C(N)=O)cc1OC", "obsValue": "6.33% (active)"}

Read the entry CCC(C)[C@H]1O[C@]2(CC[C@@H]1C)C[C@@H]1C[C@@H](C/C=C(\C)[C@@H](OC3C[C@H](OC)C(O[C@H]4C[C@H](OC)[C@@H](O)[C@H](C)O4)[C@H](C)O3)[C@@H](C)/C=C/C=C3\CO[C@@H]4[C@H](O)C(C)=C[C@@H](C(=O)O1)[C@]34O)O2 (stereo not given in full) and write its reported growth.
25.9% (inactive)

Read the entry "O=S(=O)(Nc1ccc(Cl)c(Cl)c1)c1ccc(-c2cnc(C3CC3)o2)cc1" and write its reported growth.
18.9% (inactive)

Read the entry "COc1ccc(OC)c(/C=C2\Oc3cc(O)ccc3C2=O)c1" and write its reported growth.
96.1% (inactive)
